# ASSAY INFO: Cytotoxic Profiling in HEK 293 Cell Line of Diverse Libraries Using Quantitative High-Throughput Screening; note: nearly all actives have a fitted effect of over 60% in size
# RUN PARAMETERS: HEK 293 viability, ATP luminescence (CellTiter-Glo), 48-72 h; series mostly up to 115 µM
# Description: Cell-based phenotypic screening is a commonly used approach to discover biological pathways, novel drug targets, chemical probes and high-quality hit-to-lead molecules. Many hits identified from high-throughput screening campaign are ruled out through a series of follow-up potency, selectivity/specificity, and cytotoxicity assays. […]
Among all 94,000 compounds or so, about 6,200 (6.6%) were called active. About 31% were inconclusive and are not listed. Calls come from the whole dose curve; as a rule, active = well fitted inhibition curve with a large enough effect; inconclusive = small, poorly fitted or top-dose-only effect; inactive = flat fitted curve, though single readings scatter. Shown is part of a subset that was picked to be rich in actives.
Tick one outcome: active, inactive

The following molecules have reported results that may help.
>>> classification("Cn1nccc1C(=O)N1CCCCCNC(=O)[C@@H]2CCC[C@@H]21")
"inactive"
>>> classification("Cc1nnc2ccc(N3CCC(NC(=O)c4ccccc4Cl)C3)nn12 (stereo not drawn)")
"inactive"
>>> classification("CCCN1C(=O)C(CC(=O)NC2CCCC2)Sc2ncccc21 (stereo not drawn)")
"inactive"

Query molecule follows.
Q) What is the recorded call for this molecule in the test? `CCN1CC2(CCN(C(=O)[C@H]3Cc4ccccc4CN3)CC2)CC1=O`
A) inactive
